# Tgt: Gal(b1-3)GlcNAc
# Measurement Protocol: glycan array binding signal (z-score within array); higher = stronger binding
# Details: glycan notation: IUPAC condensed, linker removed
The full list was thinned out, with the strongest signals kept by preference.
Quantity Measured: glycan array binding signal (z-score)

[
  {
    "Binder": "SGC, Q9M345 (protein) QNLNFTYNGFHPPLTDISLQGLATVTPNGLLKLTNTSVQKTGHAFCTERIRFKDSQNGNVSSFSTTFVFAIHSQIPTLSGHGIAFVVAPTLGLPFALPSQYIGLFNISNNGNDTNHIFAVEFDTIQSSEFGDPNDNHVGIDLNGLRSANYSTAGYRDDHDKFQNLSLISRKRIQVWIDYDNRSHRIDVTVAPFDSDKPRKPLVSYVRDLSSILLEDMYVGFSSATGSVLSEHFLVGWSFRLNGEAPMLSLSKLPKLPRFEPRRIS",
    "glycan array binding signal (z-score)": -0.208
  },
  {
    "Binder": "LlpB (Pseudomonas fluorescens) (protein) MGSSHHHHHHSSGLVPRGSHMASSGFRIILFNSANNGTAILPPRNCLVAGQYLESPSKRYKLILEADGNLRLYDNGVPIWVADSSVPYTYVDNRPNTNLVTCFYMQGSAFLVDRVGSRTWATIGDWIDGAADRAYLQVQDDGNVVVVDGVPRWARFGFTPAALPNRGVFYPDHGTGPLPSFPVWSWTF",
    "glycan array binding signal (z-score)": 0.344
  },
  {
    "Binder": "DGL (Dioclea grandiflora), P08902 (protein) ADTIVAVELDSYPNTDIGDPNYPHIGIDIKSIRSKSTARWNMQTGKVGTVHISYNSVAKRLSAVVSYSGSSSTTVSYDVDLNNVLPEWVRVGLSATTGLYKETNTILSWSFTSKLKTNSIADENSLHFSFHKFSQNPKDLILQGDAFTDSDGNLELTKVSSSGDPQGNSVGRALFYAPVHIWESSAVVASFDATFTFLIKSPDREPADGITFFIANTDTSIPSGSGGRLLGLFPDAN",
    "glycan array binding signal (z-score)": -0.172
  }
]

The value of glycan array binding signal (z-score) measured for the binder SCA (Schizophyllum commune) (protein) MGIDQGVYLITNAGSGTAATLKDGYVKGWERIKGKEQLNQLWFVKSVKTSASDPGYAAFNLATNKVLDLEKGLADRGTPILGWDYHEGDNQHWVIKKQADGKYYKIQSVKTQTFVDLNNGGKDNGTKIQGWVGSWDETNSHQRWVFNQFSATGSRIKSILDTHPKIHGKVIVEWPDRIYFTPDQYIFEAIWAKTGLADIKPRDPLFQSEAYEKVFKGWVVSRAQEIIKVDGFDILVGSLSLVEKSTQKIKVLDVSVRTSDDKSPDLSQIVFFDPESGRTLVDIPEGYEVNSVII turned out to be -0.162

The value of glycan array binding signal (z-score) measured for the binder SEX4 (Arabidopsis thaliana), Q944A8 (protein) TQAMGAVLTYRHELGMNYNFIRPDLIVGSCLQTPEDVDKLRKIGVKTIFCLQQDPDLEYFGVDISSIQAYAKKYSDIQHIRCEIRDFDAFDLRMRLPAVVGTLYKAVKRNGGVTYVHCTAGMGRAPAVALTYMFWVQGYKLMEAHKLLMSKRSCFPKLDAIRNATIDILTGLKRKTVTLTLKDKGFSRVEISGLDIGWGQRIPLTLGKGTGFWILKRELPEGQFEYKYIIDGEWTHNEAEPFIGPNKDGHTNNYAKVVDDPTSVDGTTRERLSSEDPELLEEERSKLIQFLETCSEAEV turned out to be -0.554
